Biological target: glyoxal oxidase (Glo1) (Ustilago maydis, UniProt Q7Z868)
Sequence (Q7Z868 entry or part of it): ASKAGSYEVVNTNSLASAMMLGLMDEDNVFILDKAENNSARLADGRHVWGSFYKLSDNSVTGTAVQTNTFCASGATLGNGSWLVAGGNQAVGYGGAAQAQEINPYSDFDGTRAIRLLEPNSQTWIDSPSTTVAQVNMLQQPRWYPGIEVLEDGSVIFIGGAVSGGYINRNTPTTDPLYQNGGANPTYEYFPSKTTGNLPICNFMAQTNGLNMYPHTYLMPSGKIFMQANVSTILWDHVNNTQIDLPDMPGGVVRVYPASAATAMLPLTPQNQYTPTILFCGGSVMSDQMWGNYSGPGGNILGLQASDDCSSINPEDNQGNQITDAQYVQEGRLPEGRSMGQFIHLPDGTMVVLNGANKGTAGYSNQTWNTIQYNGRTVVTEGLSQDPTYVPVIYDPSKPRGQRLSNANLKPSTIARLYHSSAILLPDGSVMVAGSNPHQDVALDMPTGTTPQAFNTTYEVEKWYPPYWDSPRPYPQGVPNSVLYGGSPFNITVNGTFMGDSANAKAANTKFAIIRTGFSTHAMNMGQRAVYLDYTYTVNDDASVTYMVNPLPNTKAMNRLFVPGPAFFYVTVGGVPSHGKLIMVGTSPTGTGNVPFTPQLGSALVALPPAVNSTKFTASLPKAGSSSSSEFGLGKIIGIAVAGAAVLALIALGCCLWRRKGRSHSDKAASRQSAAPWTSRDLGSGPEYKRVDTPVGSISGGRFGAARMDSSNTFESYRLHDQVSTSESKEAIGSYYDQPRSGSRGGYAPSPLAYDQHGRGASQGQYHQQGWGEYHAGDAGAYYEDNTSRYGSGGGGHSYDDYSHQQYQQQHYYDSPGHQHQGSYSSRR
Test: Enzyme assay for identifying glyoxal oxidase inhibitors (Amplex Red/HRP coupled, cells of overproducer strain Bay-CA95)
Assay type: biochemical
Conditions: negative decimal logarithm of molar IC50; intact Bay-CA95 cells, 10 mM methylglyoxal, 9 hours at 30° C., fluorescence 550/595 nm; read-out: pI50 (converted)
endpoint.name: IC50 (µM)
Entry rule: numbers only, all in µM.

Examples with answers:
molecule C[Si](C)(C)O[Si](C)(CCCNC(=O)/C=C\c1cc(OC(O)C(O)C(O)C(O)CO)c(O)cc1O)O[Si](C)(C)C (centres unmarked) [Example 4] , IC50 observed: 3.8

GET /value?item= COc1ccc(NCc2ccccc2O)cc1 [Example 5] &field=IC50 returns 3.98

Lab book: IC50 of CCOc1ccc(NCc2ccccc2O)cc1 [Example 2] noted as 4.07

// IC50 value for COc1ccc(C(=O)Nc2ccccc2)cc1N [Example 1] : 11

Let us examine a further case.
Sure, the documented IC50 for Nc1ccc(Oc2ccc(N)cc2)cc1 [Example 3] is 5.62
